pKi values by entry
target: UniProt P19020; assay: Displacement of [3H]Spiroperidol from cloned rat dopamine D3 receptor expressed in HEK293 cells by liquid scintillation counting analysis; assay type: cell-based
Sequence (P19020 whole entry): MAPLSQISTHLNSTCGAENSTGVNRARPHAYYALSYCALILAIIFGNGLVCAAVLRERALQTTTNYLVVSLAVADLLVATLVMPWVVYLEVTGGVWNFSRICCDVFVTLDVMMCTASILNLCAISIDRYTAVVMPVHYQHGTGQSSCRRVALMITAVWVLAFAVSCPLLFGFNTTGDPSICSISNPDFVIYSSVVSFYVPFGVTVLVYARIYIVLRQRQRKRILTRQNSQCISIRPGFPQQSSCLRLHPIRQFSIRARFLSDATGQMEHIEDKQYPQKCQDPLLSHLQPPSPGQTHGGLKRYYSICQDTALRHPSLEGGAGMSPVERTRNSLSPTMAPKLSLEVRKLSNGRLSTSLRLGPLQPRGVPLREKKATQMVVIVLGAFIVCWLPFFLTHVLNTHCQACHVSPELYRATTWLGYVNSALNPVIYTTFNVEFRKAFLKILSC
Worth noting: pKi values are minus log10 of concentrations stated in mol/L.

Sample records with pKi:
CCCN(CCN1CCN(Cc2c[nH]c3cccc(OC)c23)CC1)C1CCc2nc(N)sc2C1 (racemic)
7.60
CCCN(CCN1CCN(c2cc(F)c3[nH]ccc3c2)CC1)[C@H]1CCc2nc(N)sc2C1
8.44
CCCN(CCN1CCN(Cc2c[nH]c3ccc(F)cc23)CC1)C1CCc2nc(N)sc2C1 (racemic)
7.92

Sample CCCN(CCN1CCN(c2ccc3cc[nH]c3c2Cl)CC1)[C@H]1CCc2nc(N)sc2C1.O=C(O)C(F)(F)F , system: UniProt P19020. Its pKi is 8.94

Considering CCCN(CCN1CCN(Cc2c[nH]c3cccc(Cl)c23)CC1)C1CCc2nc(N)sc2C1 (racemic) , its pKi with UniProt P19020 was recorded as 7.86

Value (pKi, UniProt P19020) for record CCCN(CCN1CCN(c2c(Cl)ccc3[nH]ccc23)CC1)[C@H]1CCc2nc(N)sc2C1 = 9.06
